Assay overview: chemical genetic growth profiling, strain panel (AID 1159580);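 note: tested at 20 µM; growth read once vehicle control cultures reached saturation at 30 °C; 1 = growth at the plate median or of vehicle wells; lower values mean less growth of the strain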
Protocol conditions: S. cerevisiae deletion strains, growth OD, locus YLR221C, strain rsa3, active compounds read low
Out of some 5,500 compounds screened, about 2,000 (36%) were called active. About 18% were inconclusive and are not listed. This is one part of the list.
Measure: normalized growth

{"Molecule": "CC(=O)O[C@H]1C[C@@H](OC(C)=O)C(C)(C)C2C[C@@H](OC(C)=O)[C@]3(C)C(CC[C@@]4(C)[C@H](c5ccoc5)C(=O)[C@H]5O[C@]543)[C@]21C (stereo partly drawn)", "Measure": "normalized growth", "Numeric readout": 1}
{"Molecule": "CC[C@@H](C(=O)[C@@H](C)[C@@H](O)[C@H](C)[C@@H]1O[C@@H]([C@@H](CC)C(=O)O)CC[C@@H]1C)[C@H]1OC2(C=C[C@@H](O)[C@]3(CC[C@@](C)([C@H]4CC[C@](O)(CC)[C@H](C)O4)O3)O2)[C@H](C)C[C@@H]1C (stereo partly drawn)", "Measure": "normalized growth", "Numeric readout": 0.856}
{"Molecule": "CCOC(=O)CCCCCCCCCCCCC1C=CCC1 (stereo not drawn)", "Measure": "normalized growth", "Numeric readout": 0.938}
{"Molecule": "CC1=C(/C=C/C(C)=C/C=C/C(C)=C\\C(=O)O)C(C)(C)CCC1", "Measure": "normalized growth", "Numeric readout": 1.02}
{"Molecule": "NC(=O)c1cnccn1", "Measure": "normalized growth", "Numeric readout": 1.01}
{"Molecule": "CC[C@@]1(C2O[C@@H](C3O[C@@](O)(CC)[C@H](C)C[C@@H]3C)C[C@@H]2C)CC[C@H]([C@]2(C)CCC3(C[C@H](O)[C@@H](C)[C@@H]([C@H](C)[C@@H](OC)[C@H](C)C(=O)O)O3)O2)O1 (stereo partly drawn)", "Measure": "normalized growth", "Numeric readout": 0.988}
{"Molecule": "O=C(NC(=O)c1c(F)cccc1F)Nc1cc(Cl)c(OC(F)(F)C(F)C(F)(F)F)cc1Cl (stereo not drawn)", "Measure": "normalized growth", "Numeric readout": 0.984}
{"Molecule": "COc1ccc(/C=C/c2cc(O)cc(O)c2)cc1", "Measure": "normalized growth", "Numeric readout": 0.999}

###

Assay overview: chemical genetic growth profiling, strain panel (AID 1159580);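 note: tested at 20 µM; growth read once vehicle control cultures reached saturation at 30 °C; 1 = growth at the plate median or of vehicle wells; lower values mean less growth of the strain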
Protocol conditions: S. cerevisiae deletion strains, growth OD, locus YEL061C, strain CIN8, active compounds read low
The campaign covered roughly 5,500 compounds. About 2,000 (36%) were called active. Roughly 18% stayed inconclusive and do not appear here. This is one part of the list.
Each entry below lists one item and its recorded normalized growth value.

{"Compound": "Fc1cccc(Cl)c1Cn1nnc(N2CCCCC2)n1", "normalized growth": 0.966}
{"Compound": "CC[C@@H](C(=O)[C@@H](C)[C@@H](O)[C@H](C)[C@@H]1O[C@@H]([C@@H](CC)C(=O)O)CC[C@@H]1C)[C@H]1OC2(C=C[C@@H](O)[C@]3(CC[C@@](C)([C@H]4CC[C@](O)(CC)[C@H](C)O4)O3)O2)[C@H](C)C[C@@H]1C (stereo partly drawn)", "normalized growth": 0.982}
{"Compound": "COC(=O)c1ccc(-c2ccccc2F)cc1", "normalized growth": 0.927}
{"Compound": "CN(Cc1cnc2nc(N)nc(N)c2n1)c1ccc(C(=O)NC(CCC(=O)O)C(=O)O)cc1 (stereo not drawn)", "normalized growth": 0.962}
{"Compound": "Cc1cccc(CN2CCN(C(c3ccccc3)c3ccc(Cl)cc3)CC2)c1 (stereo not drawn)", "normalized growth": 0.968}
{"Compound": "CCCN(CCC)C(=O)C(CCC(=O)O)NC(=O)c1ccccc1 (stereo not drawn)", "normalized growth": 0.992}
{"Compound": "Cc1ccc(Cl)cc1NC(=S)NCCO", "normalized growth": 1.02}
{"Compound": "COC(=O)c1ccc(C#Cc2ccccc2)o1", "normalized growth": 0.713}
{"Compound": "O=c1[nH]c(-c2cc(Br)cs2)nc2ccc(Cl)cc12", "normalized growth": 1.01}
{"Compound": "CC[C@@H]1[C@@H](O)N2C3C[C@H]1C1C(O)[C@]4(C[C@@H]12)c1ccccc1N(C)[C@@H]34 (stereo partly drawn)", "normalized growth": 0.995}
{"Compound": "O=C(O)CCCCCCCCCCCCC1C=CCC1 (stereo not drawn)", "normalized growth": 0.971}
{"Compound": "CC(COc1ccccc1)N(CCCl)Cc1ccccc1 (stereo not drawn)", "normalized growth": 1.01}
{"Compound": "CC(C)(C)OC(=O)N1CCN(Cc2ccccc2)CC1", "normalized growth": 0.98}
{"Compound": "C=CCN1CC[C@]23c4c5ccc(O)c4OC2C(=O)CC[C@@]3(O)[C@H]1C5 (stereo partly drawn)", "normalized growth": 1.01}
{"Compound": "O=C(O)CCCCC1SCC2NC(=O)NC21 (stereo not drawn)", "normalized growth": 1.02}
{"Compound": "CCOC(=O)c1c(C)csc1N", "normalized growth": 0.987}
{"Compound": "CC(=O)Oc1cc(C)c2c(c1C(OC(C)=O)OC(C)=O)Oc1c(c(C)c(OC(C)=O)c3c1C(OC(C)=O)OC3=O)OC2=O (stereo not drawn)", "normalized growth": 0.985}
{"Compound": "COc1cc(C)c2c(c1C=O)Oc1c(c(C)c(O)c3c1C(O)OC3=O)OC2=O (stereo not drawn)", "normalized growth": 0.974}
{"Compound": "CCOC(=O)CCc1cc(N=Cc2cc(Cl)cc(Cl)c2O)c(O)c(N=Cc2cc(Cl)cc(Cl)c2O)c1", "normalized growth": 0.254}
{"Compound": "COc1ccc(/C=C/C(=O)O)cc1OC", "normalized growth": 1.01}
{"Compound": "COc1cc(/C=C/C(=O)O)cc(OC)c1OC", "normalized growth": 1.01}
{"Compound": "CC[C@@H](C(=O)O)[C@@H]1O[C@@H]([C@@H](C)[C@H](O)[C@H](C)C(=O)[C@H](CC)[C@H]2O[C@]3(C=C[C@@H](O)[C@]4(CC[C@@](C)(C5CC[C@](O)(CC)[C@H](C)O5)O4)O3)[C@H](C)C[C@@H]2C)[C@@H](C)C[C@H]1C (stereo partly drawn)", "normalized growth": 0.724}
{"Compound": "Cc1onc(-c2ccccc2Cl)c1C(=O)Nc1ccc2c(c1)OCO2", "normalized growth": 1.01}
{"Compound": "O=C(Nc1ccc(Cl)cc1Cl)c1cnccn1", "normalized growth": 0.95}
{"Compound": "CC(=O)c1ccc(-c2ccc(C(C)=O)cc2)cc1", "normalized growth": 1.01}
{"Compound": "COC(=O)c1ccc(S(=O)(=O)NCc2ccccc2)n1C", "normalized growth": 1.06}
{"Compound": "O=c1[nH]cnc2ccc(Br)cc12", "normalized growth": 0.998}
{"Compound": "CC1=CC(=O)CC(C)(C)C1(O)/C=C/C(C)=C\\C(=O)O (stereo not drawn)", "normalized growth": 0.986}
{"Compound": "CCOC(=O)c1c(-c2ccc(F)cc2)csc1N", "normalized growth": 0.746}
{"Compound": "CSc1nc2ccc(NC(=O)c3c(-c4ccccc4)noc3C)cc2s1", "normalized growth": 1}
{"Compound": "CC(=O)C1=C(O)C2C3c4c[nH]c5cccc(c45)CC3C(C)(C)N2C1=O (stereo not drawn)", "normalized growth": 0.989}
{"Compound": "O=C(O)P(=O)(O)O", "normalized growth": 0.984}
{"Compound": "O=C(CC(Nc1ccccc1)c1ccccc1)C1CC1 (stereo not drawn)", "normalized growth": 0.992}
{"Compound": "NCCCCN=C(N)N", "normalized growth": 1}
{"Compound": "Cc1cc(/C=N/NC(N)=S)c2c(C)ccc(C(C)C)cc1-2", "normalized growth": 1.01}
{"Compound": "Nc1nc2ncc(CNc3ccc(C(=O)N[C@@H](CCC(=O)O)C(=O)O)cc3)nc2c(=O)[nH]1", "normalized growth": 0.988}
{"Compound": "CN(C)c1ccc(/C=N\\NC(=O)CCc2ccc(O)cc2)c(Cl)c1", "normalized growth": 0.974}
{"Compound": "CCCCCCCC1CC/C(=C\\c2ccc(/C=C3\\CCC(CCCCCCC)C3=O)cc2)C1=O (stereo not drawn)", "normalized growth": 0.999}
{"Compound": "COc1ccc(-c2cc(C(F)F)nn2-c2ccc(S(N)(=O)=O)cc2)cc1F", "normalized growth": 1}
{"Compound": "CCOC(=O)CCCCCCCCCCCCC1C=CCC1 (stereo not drawn)", "normalized growth": 0.054}
{"Compound": "CCN(CC)CCOC(=O)C(Cc1cccc2ccccc12)CC1CCCO1 (stereo not drawn)", "normalized growth": 1.01}
{"Compound": "N/C(=N\\OC(=O)c1ccno1)c1ccc(C(F)(F)F)cc1", "normalized growth": 1}
{"Compound": "CC/C(=N/Oc1ccc(C(F)(F)F)cn1)c1ccc(-c2ccccc2F)cc1", "normalized growth": 0.992}
